Source: ChEMBL document CHEMBL4689842

# Tested on: HEK-293T
# measurement description: Multiplex assay against HEK293T
# Type: toxicity, cell-based
# cond: human, 24 h, 1 µM, compound concentration 1 uM, replicate 2
endpoint label: Total Cell Count
Give a plain numeric answer without units written out.

Given OC1(c2ccc(Cl)cc2)CCN(Cc2c[nH]c3ccccc23)CC1 , state its recorded Total Cell Count.
171

Dear colleague, I am looking for the recorded Total Cell Count of the following compound: CC[C@H](C)C(=O)O[C@H]1C[C@@H](C)C=C2C=C[C@H](C)[C@H](CC[C@@H]3C[C@@H](O)CC(=O)O3)[C@H]21 [LOVASTATIN]
287

Would you mind telling me what Total Cell Count value was observed for CN(C)CC#Cc1ccc(OCCCc2sc(N3CCc4cccc(C(=O)Nc5nc6ccccc6s5)c4C3)nc2C(=O)O)c(F)c1 [A-1155463] ?
220

Can you look up the measured Total Cell Count of CNc1nc(NCc2ccc(NS(C)(=O)=O)cc2Cl)cc(-c2ccccn2)n1 for me?
355

Could you tell me which Total Cell Count is on file for Cc1nc(-c2ccc(-c3ccc(C(=O)N4CCc5cc6c(cc54)C4(CCN(C)CC4)CO6)cc3)c(C)c2)no1 [SB-224289] ?
232

Recorded Total Cell Count for O=C1NCN(c2ccccc2)C12CCN(CCCOc1ccc(F)cc1)CC2 [SPIRAMIDE] , please?
207

# query: Total Cell Count of entry C[C@@H](NCCCc1cccc(C(F)(F)F)c1)c1cccc2ccccc12.Cl [CINACALCET HYDROCHLORIDE]
201

Quick one: Total Cell Count of CC(C)NCC(O)COc1ccc(CCOCC2CC2)cc1.Cl (centres undefined) [BETAXOLOL HYDROCHLORIDE] ?
314

Consider the compound CC(C)(O)CNc1ncc(-c2ccnc(Nc3ccnc(Cl)c3)n2)c(CC2CC2)n1 and give its measured Total Cell Count.
145

====

Exercise: for every item that follows, state its recorded Growth Rate.
# Test system: Fibroblast
# measurement description: Incucyte cell viability with human fibroblast; note: filed as whole numbers so only -1 and 0 and 1 occur
# Format: toxicity, cell-based
# cond: 12 h, 10 µM, compound concentration 10 uM, replicate number 2, timepoint 12 hours
Give a plain numeric answer without units written out.

Which Growth Rate value is on record for CCC(=O)N1CCOc2c(cc(-c3ccc(OC)c(OC)c3)cc2OC[C@H]2CCCN(C)C2)C1 ?
0

Look up Growth Rate: O=c1nc(-c2ccccn2)sc2ccccc12
1

Tell me the measured Growth Rate of Cl.Cl.c1ccc([C@@H]2C[C@H]2NC2CCNCC2)cc1 , please.
1

GET /values?readout=Growth Rate&item= Cc1csc2c(N[C@@H](C)CN3CCN(S(=O)(=O)c4ccc(Cl)c(Cl)c4)CC3)ncnc12
0

Find the recorded Growth Rate belonging to O=C(O)[C@@H]1[C@@H](Cn2nnc3ccccc3c2=O)CC[C@H]1C(=O)c1ccc(OCCC2CCOCC2)cc1 and report it.
0

====

Task for the reader: assign each of the following compounds its reported Population Mitotic Cells (%).
# Tested on: Fibroblast
# measurement description: Multiplex assay against human fibroblast
# Type: toxicity, cell-based
# cond: 48 h, 10 µM, compound concentration 10 uM, replicate 1

# lookup: Population Mitotic Cells (%) of CCOCCn1cc(C(=O)Nc2ccc(-n3nc(-c4cccnc4)cc3C(F)(F)F)cn2)ccc1=O
44%

Query: Population Mitotic Cells (%); subject: NC(=O)Nc1cc(-c2cccc(F)c2)sc1C(=O)N[C@H]1CCCNC1
75%

Entry C=CC(=O)Nc1ccc2ncnc(Nc3ccc(OCc4cccc(F)c4)c(Cl)c3)c2c1.Cc1ccc(S(=O)(=O)O)cc1 has what Population Mitotic Cells (%)?
18%

Please give the measured Population Mitotic Cells (%) for this compound: C[C@@]1(C(=O)Nc2ccc(F)nc2)CCCN1c1nc(Nc2cc(C3CC3)n[nH]2)c2cccn2n1
7%

Looking for the measured Population Mitotic Cells (%) of Cl.N#Cc1ccc2[nH]cc(CCCCN3CCN(c4ccc5oc(C(N)=O)cc5c4)CC3)c2c1 [VILAZODONE HYDROCHLORIDE] , can you help?
50%

Can you share its Population Mitotic Cells (%)? I mean this compound: Cc1csc2c(N[C@@H](C)CN3CCN(S(=O)(=O)c4ccc(Cl)c(Cl)c4)CC3)ncnc12
0%

Need Population Mitotic Cells (%), item CN1CCC[C@@H]1CCO[C@](C)(c1ccccc1)c1ccc(Cl)cc1.O=C(O)/C=C/C(=O)O [CLEMASTINE FUMARATE]
21%

Tell me the measured Population Mitotic Cells (%) of Cn1cc(-c2[nH]c3cc(NC(=O)[C@H](N)C4CCCCC4)cc4c3c2C=NNC4=O)cn1 , please.
22%

====

Provide the reported Total Cell Count of each item.
# Test system: Fibroblast
# measurement description: Multiplex assay against human fibroblast
# Type: toxicity, cell-based
# cond: 48 h, 10 µM, compound concentration 10 uM, replicate 1
I only need the number, thanks.

Look up Total Cell Count: Cc1[nH]c(/C=C2\C(=O)Nc3ccc(S(=O)(=O)N(C)c4cccc(Cl)c4)cc32)c(C)c1C(=O)N1CCN(C)CC1
76

Give its Total Cell Count value. Item: CN1CCC[C@@H]1CCO[C@](C)(c1ccccc1)c1ccc(Cl)cc1.O=C(O)/C=C/C(=O)O [CLEMASTINE FUMARATE]
197

Reported Total Cell Count, compound CN(C)C(=O)/C(C#N)=C/c1ccc(-c2nc3cnc4[nH]ccc4c3n2C2CCCCC2)o1 : ____
650

Which Total Cell Count value is on record for COc1cc2nccc(Oc3ccc(NC(=O)Nc4cc(C)on4)c(Cl)c3)c2cc1OC.O ?
148

====

# Tested on: Fibroblast
# measurement description: Incucyte cell viability with human fibroblast; note: filed as whole numbers so only -1 and 0 and 1 occur
# Type: toxicity, cell-based
# cond: 12 h, 10 µM, compound concentration 10 uM, replicate number 1, timepoint 12 hours
endpoint label: Growth Rate
Lab note: jot the number down without any unit.

What value of Growth Rate has been reported for the following molecule? CN(C)CC#Cc1ccc(OCCCc2sc(N3CCc4cccc(C(=O)Nc5nc6ccccc6s5)c4C3)nc2C(=O)O)c(F)c1 [A-1155463]
0

Could you share which Growth Rate value was measured for CN(C)[C@@H]1CCN(c2cc(-c3ccccc3)nc3ccnn23)C1 [(R)-ZINC-3573] ?
1

I would be grateful if you could share the reported Growth Rate for Cc1sc2c(c1C)C(c1ccc(Cl)cc1)=N[C@@H](CC(=O)OC(C)(C)C)c1nnc(C)n1-2 .
0

Sample CCN(CC)CCCCNc1ncc2cc(-c3cc(OC)cc(OC)c3)c(NC(=O)NC(C)(C)C)nc2n1 [PD-173074] — what was its Growth Rate?
0

====

# Tested on: U2OS
# measurement description: Multiplex assay against U2OS
# Format: toxicity, cell-based
# cond: human, 24 h, 10 µM, compound concentration 10 uM, replicate 1
endpoint label: Population Hoechst High Intensity Objects (%)
Enter your answer as a number in %; do not include the unit.

What value of Population Hoechst High Intensity Objects (%) has been reported for the following molecule? Cc1nc(-c2cn3c(n2)-c2ccc(-c4cnn(C(C)(C)C(N)=O)c4)cc2OCC3)n(C(C)C)n1 [TASELISIB]
1

Any idea what Population Hoechst High Intensity Objects (%) was measured for c1cn2cc(-c3ccc4cn[nH]c4c3)nc(Nc3ccc(N4CCOCC4)cc3)c2n1 [ENTOSPLETINIB] ?
23

Value lookup for Population Hoechst High Intensity Objects (%); key = Cc1cc(C)cc(-c2cnc3cc(Cl)c(-c4cccc(O)c4)cc3c2OCCCN)c1
15

Requested read-out: Population Hoechst High Intensity Objects (%). Entry: COc1cc(-n2cnc3cc(-c4ccc(Cl)cc4)sc3c2=O)ccc1OCCN1CCCC1
11

# get_value(readout='Population Hoechst High Intensity Objects (%)', item= Cc1nc(-c2ccc(-c3ccc(C(=O)N4CCc5cc6c(cc54)C4(CCN(C)CC4)CO6)cc3)c(C)c2)no1 [SB-224289] )
9

Query: Population Hoechst High Intensity Objects (%); subject: CNCc1ccc(-c2cc(-c3nc(-c4ccc(S(=O)(=O)C(C)C)cc4)cnc3N)on2)cc1 [BERZOSERTIB]
59

Which measured Population Hoechst High Intensity Objects (%) value corresponds to CN(C)C(=O)/C(C#N)=C/c1ccc(-c2nc3cnc4[nH]ccc4c3n2C2CCCCC2)o1 ?
44

Could you share which Population Hoechst High Intensity Objects (%) value was measured for C=CC(=O)Nc1cc2c(Nc3ccc(F)c(Cl)c3)ncnc2cc1OCCCN1CCOCC1.Cl.Cl [CANERTINIB DIHYDROCHLORIDE] ?
3

====

# System: U2OS
# measurement description: Multiplex assay against U2OS
# Format: toxicity, cell-based
# cond: human, 12 h, 10 µM, compound concentration 10 uM, replicate 1
Please provide measured Population Tubulin-Different-Phenotype (%) for the entries that follow.
Give your result in % as a bare value.

Which Population Tubulin-Different-Phenotype (%) is listed for Cc1nc(-c2cn3c(n2)-c2ccc(-c4cnn(C(C)(C)C(N)=O)c4)cc2OCC3)n(C(C)C)n1 ?
24

Endpoint output: Population Tubulin-Different-Phenotype (%) of C=CC(=O)Nc1cc2c(Nc3ccc(F)c(Cl)c3)ncnc2cc1OCCCN1CCOCC1.Cl.Cl [CANERTINIB DIHYDROCHLORIDE] . Value?
17

What value of Population Tubulin-Different-Phenotype (%) has been recorded for this entry: CC(C)NCC(O)COc1ccc(CCOCC2CC2)cc1.Cl (stereo not drawn) [BETAXOLOL HYDROCHLORIDE]
53

Which measured Population Tubulin-Different-Phenotype (%) value corresponds to COc1cc(-n2cnc3cc(-c4ccc(Cl)cc4)sc3c2=O)ccc1OCCN1CCCC1 ?
100

Entry CCN(CC)CCCCNc1ncc2cc(-c3cc(OC)cc(OC)c3)c(NC(=O)NC(C)(C)C)nc2n1 has what Population Tubulin-Different-Phenotype (%)?
92

Value lookup for Population Tubulin-Different-Phenotype (%); key = CN1CCN(c2ccc(OC(F)(F)F)c(Nc3ncc4c(n3)-c3c(c(C(N)=O)nn3CCO)CC4)c2)CC1
84

// returns reported Population Tubulin-Different-Phenotype (%) for input Cn1cc(-c2[nH]c3cc(NC(=O)[C@H](N)C4CCCCC4)cc4c3c2C=NNC4=O)cn1
28
